system_tested: JAM-A C-terminal 10mer peptide, N-terminally FITC-conjugated
method_summary: fluorescence polarisation

- binder: "human afadin PDZ domain (domain or fragment) IITVTLKKQNGMGLSIVAAKGAGQDKLGIYVKSVVKGGAADVDGRLAAGDQLLSVDGRSLVGLSQERAAELMTRTSSVVTLEVAKQG"
  Kd (µM): 5
